Measured target: T1, Human ANGPTL4(26-406)-FLAG-His6-Avi (human, UniProt Q9BY76 24-406, biotin on the C-terminal Avi tag in the biotinylated preparations (immobilised form in SET, ELISA and Octet))
T1 sequence: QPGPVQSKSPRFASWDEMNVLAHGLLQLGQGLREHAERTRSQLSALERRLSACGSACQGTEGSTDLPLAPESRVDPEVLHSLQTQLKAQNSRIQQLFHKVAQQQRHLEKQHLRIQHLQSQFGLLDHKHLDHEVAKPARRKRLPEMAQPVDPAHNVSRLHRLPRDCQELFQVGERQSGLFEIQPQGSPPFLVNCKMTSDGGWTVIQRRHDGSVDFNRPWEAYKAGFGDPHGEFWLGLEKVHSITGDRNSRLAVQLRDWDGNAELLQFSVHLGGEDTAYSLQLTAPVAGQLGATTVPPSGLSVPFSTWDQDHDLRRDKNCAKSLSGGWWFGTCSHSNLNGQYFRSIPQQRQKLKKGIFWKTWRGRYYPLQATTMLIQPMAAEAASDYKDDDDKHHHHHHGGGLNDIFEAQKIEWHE
Test method notes: cell-based or functional assay
Record form. Attribute: Reversal of human ANGPTL4 inhibition of human LPL EC50. Fill in for each entry.
# output: bare number, implied unit nM

Please give the measured Reversal of human ANGPTL4 inhibition of human LPL EC50 for this binder: MOR021792 (antibody, human IgG1, lambda, V domains shown) VH: QVQLLESGGGLVQPGGSLRLSCAASGFTFSDYAMDWVRQAPGKGLEWVSKISYDGSYTYYADSVKGRFTISRDNSKNTLYLQMNSLRAEDTAVYYCARPSMSYYIIPAGFDVWGQGTLVTVSS VL: DIELTQPPSVSVSPGQTASITCSGDALGVKRASWYQQKPGQAPVLVIYKDNNRPSGIPERFSGSNSGNTATLTISGTQAEDEADYYCSVRTWSMNLYVFGGGTKLTVLG
1

Further, for MOR021800 (antibody, human IgG1, lambda, V domains shown, human IgG1) VH: QVQLVQSGAEVKKPGESLKISCKGSGYSFSTYWISWVRQMPGKGLEWMGIIDPSNSDTRYSPSFQGQVTISADKSISTAYLQWSSLKASDTAMYYCARVYGYVYMDVWGQGTLVTVSS VL: DIELTQPPSVSVSPGQTASITCSGDNLGKKYAYWYQQKPGQAPVLVIYDKTKRPSGIPERFSGSNSGNTATLTISGTQAEDEADYYCASYDWYSSSYVFGGGTKLTVLG ?
1
